Source of measurements: patent US20240084003A1

// reported OD450 per item
Target: T1, human CD22-ECD-His protein (human, UniProt P20273 20-687)
T1 construct: Made in house in HEK293E; also called hCD22-ECD-His; recombinant human CD22-ECD His protein; not shown: His tag
T1 sequence: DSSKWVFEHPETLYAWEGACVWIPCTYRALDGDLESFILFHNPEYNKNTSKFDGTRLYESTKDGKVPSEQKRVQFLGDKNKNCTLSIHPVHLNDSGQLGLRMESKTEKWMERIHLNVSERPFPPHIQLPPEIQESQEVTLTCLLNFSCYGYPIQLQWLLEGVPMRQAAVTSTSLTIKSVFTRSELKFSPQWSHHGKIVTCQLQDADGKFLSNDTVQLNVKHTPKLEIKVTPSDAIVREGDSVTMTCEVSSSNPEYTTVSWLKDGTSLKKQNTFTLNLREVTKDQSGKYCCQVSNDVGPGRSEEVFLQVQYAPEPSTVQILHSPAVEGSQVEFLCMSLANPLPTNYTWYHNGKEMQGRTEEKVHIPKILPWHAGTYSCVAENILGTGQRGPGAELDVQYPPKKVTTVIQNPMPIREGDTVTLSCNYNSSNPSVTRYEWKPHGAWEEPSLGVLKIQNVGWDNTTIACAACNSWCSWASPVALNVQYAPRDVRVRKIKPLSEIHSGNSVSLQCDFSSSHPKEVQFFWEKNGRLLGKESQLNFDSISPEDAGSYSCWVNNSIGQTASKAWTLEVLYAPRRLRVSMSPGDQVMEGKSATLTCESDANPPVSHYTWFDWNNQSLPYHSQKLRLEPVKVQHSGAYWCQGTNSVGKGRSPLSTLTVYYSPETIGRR
Assay: ELISA, Ab 0.01 nM
OBSERVED_PROPERTY: OD450 (OD450)

INSERT INTO results (binder, measurement_units, reported) VALUES
  ('F1.224.1 (antibody, human IgG1, kappa, V domains shown, Human-murine chimeric IgG1, kappa) VH: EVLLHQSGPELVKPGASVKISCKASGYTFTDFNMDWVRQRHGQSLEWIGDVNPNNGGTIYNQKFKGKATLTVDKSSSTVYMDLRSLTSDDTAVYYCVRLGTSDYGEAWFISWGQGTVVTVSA VL: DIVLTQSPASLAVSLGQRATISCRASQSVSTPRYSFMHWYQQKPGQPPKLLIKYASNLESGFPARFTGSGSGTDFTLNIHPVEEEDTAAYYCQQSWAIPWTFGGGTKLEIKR', 'OD450', 2.21),
  ('F1.17.1 (antibody, human IgG1, kappa, V domains shown, Human-murine chimeric IgG1, kappa) VH: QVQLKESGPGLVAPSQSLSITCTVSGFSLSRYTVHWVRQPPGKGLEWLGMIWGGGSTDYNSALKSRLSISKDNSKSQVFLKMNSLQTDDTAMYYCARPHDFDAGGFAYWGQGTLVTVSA VL: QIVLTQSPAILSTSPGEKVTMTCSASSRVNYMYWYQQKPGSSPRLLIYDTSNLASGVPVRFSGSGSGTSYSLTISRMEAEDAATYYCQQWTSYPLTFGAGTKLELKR', 'OD450', 1.85),
  ('F1.216.2 (antibody, human IgG1, kappa, V domains shown, Human-murine chimeric IgG1, kappa) VH: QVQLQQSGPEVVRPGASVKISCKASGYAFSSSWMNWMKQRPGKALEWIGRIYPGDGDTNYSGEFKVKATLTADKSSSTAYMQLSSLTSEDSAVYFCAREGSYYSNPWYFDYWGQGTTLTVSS VL: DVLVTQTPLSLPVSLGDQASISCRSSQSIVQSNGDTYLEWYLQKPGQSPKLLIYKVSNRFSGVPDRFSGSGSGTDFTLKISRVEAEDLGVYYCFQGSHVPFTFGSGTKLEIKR', 'OD450', 2.48);
